From: ChEMBL document CHEMBL5038680

Biological target: Programmed cell death protein 1/Programmed cell death 1 ligand 1 (Homo sapiens, UniProt Q15116+Q9NZQ7)
Sequence (Q15116 whole entry): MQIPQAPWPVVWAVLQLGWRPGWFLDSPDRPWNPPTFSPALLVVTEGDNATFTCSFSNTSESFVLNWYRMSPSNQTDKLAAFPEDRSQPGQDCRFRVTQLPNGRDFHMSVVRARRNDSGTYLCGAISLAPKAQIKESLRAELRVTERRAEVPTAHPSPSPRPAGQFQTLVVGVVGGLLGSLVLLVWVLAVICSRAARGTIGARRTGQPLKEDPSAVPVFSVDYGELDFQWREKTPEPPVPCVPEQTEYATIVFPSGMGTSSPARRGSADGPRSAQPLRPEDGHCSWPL
Sequence (Q9NZQ7 whole entry): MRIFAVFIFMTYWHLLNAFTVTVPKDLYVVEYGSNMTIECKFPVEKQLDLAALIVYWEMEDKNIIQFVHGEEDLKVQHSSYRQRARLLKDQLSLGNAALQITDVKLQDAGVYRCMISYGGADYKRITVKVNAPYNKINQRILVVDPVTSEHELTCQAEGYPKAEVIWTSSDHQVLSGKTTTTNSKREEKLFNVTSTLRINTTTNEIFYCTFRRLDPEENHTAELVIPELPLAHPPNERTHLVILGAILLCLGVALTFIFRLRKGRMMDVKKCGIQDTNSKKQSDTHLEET
Assay: Inhibition of PD-1/PDL-1 (unknown origin) interaction at 1 uM incubated for 15 mins by TR-FRET assay
Format: protein-complex assay
Outcome measure: inhibition

Consider the following illustrative entries.
{"Molecular string": "CO[C@H]1CCc2c(-c3cccc(C(=O)Nc4ccc(CNCCNC(C)=O)cn4)c3Cl)cccc21", "Value reported": "7.75%"}
{"Molecular string": "COc1nc(NC(=O)c2cccc(-c3ccccc3)c2Cl)ccc1CNCCNC(C)=O", "Value reported": "28.2%"}
{"Molecular string": "CC(=O)NCCNCc1cccc(NC(=O)c2cccc(-c3ccccc3)c2Cl)n1", "Value reported": "15.8%"}
{"Molecular string": "O=C(Nc1ccc(CNCCO)c(C(F)(F)F)n1)c1cccc(-c2ccccc2)c1Cl", "Value reported": "41.5%"}
{"Molecular string": "COc1ccccc1-c1cccc(C(=O)Nc2ccc(CNCCNC(C)=O)cn2)c1Cl", "Value reported": "5.52%"}

Item under review: "CC(=O)NCCNCc1ccc(NC(=O)c2cccc(-c3ccc(F)cc3)c2Cl)nc1" . Reported inhibition?
6.96%

====

Target: Programmed cell death protein 1/Programmed cell death 1 ligand 1 (Homo sapiens, UniProt Q15116+Q9NZQ7)
Experiment: Inhibition of PD-1/PDL-1 (unknown origin) interaction at 1 uM incubated for 15 mins by TR-FRET assay
Assay type: protein-complex assay
Activity calls are given as the source filed them. The calls are words filed in the database; no cut-off is given here.
Outcome measure: inhibition

Consider the following illustrative entries.
{"Molecular string": "COc1nc(NC(=O)c2cccc(-c3ccccc3)c2Cl)ccc1CNCCN(C)C", "Value reported": "11.6%"}
{"Molecular string": "CC(=O)NCCNCc1ccc(NC(=O)c2cccc(-c3cc(F)c(F)c(F)c3)c2Cl)nc1", "Value reported": "3.52%"}
{"Molecular string": "COC(=O)[C@H]1CCN(Cc2ccc(NC(=O)c3cccc(-c4ccccc4)c3Cl)nc2)C1", "Value reported": "50.6%"}
{"Molecular string": "O=C(Nc1ccc(CN2CC[C@H](C(=O)O)C2)cn1)c1cccc(-c2ccc3c(c2)OCCO3)c1", "Value reported": "inactive"}
{"Molecular string": "CN(C)CCNCc1ccc(NC(=O)c2cccc(-c3ccccc3)c2Cl)nc1", "Value reported": "27.7%"}

Item under review: "COC(=O)C1CN(Cc2ccc(NC(=O)c3cccc(-c4ccccc4)c3Cl)nc2)C1" . Reported inhibition?
32.5%

Same for "CC(=O)NCCNCc1ccc(NC(=O)c2cccc(-c3ccc(F)c(F)c3)c2Cl)nc1"
2.32%

Same for "CC(=O)NCCNCc1ccc(NC(=O)c2cccc(-c3ccc(S(C)(=O)=O)cc3)c2Cl)nc1"
inactive

Same for "CC(=O)NCCNCc1ccc(NC(=O)c2cccc(-c3ccncc3)c2Cl)nc1"
inactive

====

Biological target: Programmed cell death protein 1/Programmed cell death 1 ligand 1 (Homo sapiens, UniProt Q15116+Q9NZQ7)
Test: Inhibition of PD-1/PDL-1 (unknown origin) interaction incubated for 15 mins by TR-FRET assay
Outcome measure: IC50

{"Molecular string": "COC1CN(Cc2ccc(NC(=O)c3cccc(-c4ccccc4)c3Cl)nc2)C1", "IC50": "> 1000 nM"}
{"Molecular string": "CO[C@H]1CCc2c(-c3cccc(C(=O)Nc4ccc(CNCCNC(C)=O)cn4)c3Cl)cccc21", "IC50": "> 1000 nM"}

Item under review: "O=C(Nc1ccc(CN2CC[C@H](C(=O)O)C2)cn1)c1cccc(-c2ccc3c(c2)OCCO3)c1Cl" . Reported IC50?
16.2 nM

====

Target: Programmed cell death protein 1/Programmed cell death 1 ligand 1 (Homo sapiens, UniProt Q15116+Q9NZQ7)
Test: Inhibition of PD-1/PDL-1 (unknown origin) interaction incubated for 15 mins by TR-FRET assay
Outcome measure: IC50

Consider the following illustrative entries.
{"Molecular string": "COc1ccc(-c2cccc(C(=O)Nc3ccc(CNCCNC(C)=O)cn3)c2Cl)cc1OC", "IC50": "> 1000 nM"}
{"Molecular string": "O=C(Nc1ccc(CN2CCC(O)CC2)cn1)c1cccc(-c2ccccc2)c1Cl", "IC50": "460 nM"}
{"Molecular string": "CN(C)CCNCc1ccc(NC(=O)c2cccc(-c3ccccc3)c2Cl)nc1", "IC50": "> 1000 nM"}

Item under review: "O=C(Nc1ccc(CNCCO)c(C(F)(F)F)n1)c1cccc(-c2ccccc2)c1Cl" . Reported IC50?
> 1000 nM

Same for "O=C(Nc1ccc(CN2CC(O)C2)cn1)c1cccc(-c2ccccc2)c1Cl"
528 nM

Same for "CC(=O)NCCNCc1ccc(NC(=O)c2cccc(-c3cc(F)c(F)c(F)c3)c2Cl)nc1"
> 1000 nM

Same for "CC(=O)NCCNCc1ccc(NC(=O)c2cccc(-c3cccc(CO)c3)c2Cl)nc1"
> 1000 nM

Same for "O=C(Nc1ccc(CN2CC[C@@H](O)C2)cn1)c1cccc(-c2ccccc2)c1Cl"
373 nM

Same for "COc1nc(NC(=O)c2cccc(-c3ccccc3)c2Cl)ccc1CNCCNC(C)=O"
> 1000 nM

====

Molecular target: Programmed cell death protein 1/Programmed cell death 1 ligand 1 (Homo sapiens, UniProt Q15116+Q9NZQ7)
Test: Inhibition of PD-1/PDL-1 (unknown origin) interaction at 1 uM incubated for 15 mins by TR-FRET assay
Format: protein-complex assay
Activity calls are given as the source filed them. The calls are words filed in the database; no cut-off is given here.
Outcome measure: inhibition

{"Molecular string": "CC(=O)NCCNCc1ccc(NC(=O)c2cccc(-c3ccccc3)c2Cl)nc1C(F)(F)F", "inhibition": "33.8%"}
{"Molecular string": "COC1CN(Cc2ccc(NC(=O)c3cccc(-c4ccccc4)c3Cl)nc2)C1", "inhibition": "44%"}
{"Molecular string": "COc1ccc(-c2cccc(C(=O)Nc3ccc(CNCCNC(C)=O)cn3)c2Cl)cc1", "inhibition": "8.37%"}
{"Molecular string": "CC(=O)NCCNCc1ccc(NC(=O)c2cccc(-c3ccccc3)c2C)nc1", "inhibition": "44.2%"}
{"Molecular string": "O=C(Nc1ccc(CN2CC[C@H](C(=O)O)C2)cn1)c1cccc(-c2ccc3c(c2)OCCO3)c1F", "inhibition": "inactive"}
{"Molecular string": "COc1cccc(-c2cccc(C(=O)Nc3ccc(CNCCNC(C)=O)cn3)c2Cl)c1", "inhibition": "46.1%"}

Item under review: "CC(=O)NCCNCc1ccc(NC(=O)c2cccc(-c3cccc(CO)c3)c2Cl)nc1" . Reported inhibition?
2.5%

Same for "O=C(Nc1ccc(CN2CCCC[C@H]2C(=O)O)cn1)c1cccc(-c2ccccc2)c1Cl"
41.2%

====

Target: Programmed cell death protein 1/Programmed cell death 1 ligand 1 (Homo sapiens, UniProt Q15116+Q9NZQ7)
Assay: Inhibition of PD-1/PDL-1 (unknown origin) interaction incubated for 15 mins by TR-FRET assay
pIC50: −log10 of the molar value.
pIC50: recorded values

{"Molecular string": "O=C(Nc1ccc(CN2CC(C(=O)O)C2)cn1)c1cccc(-c2ccccc2)c1Cl", "pIC50": 6.19}
{"Molecular string": "COC(=O)[C@H]1CCN(Cc2ccc(NC(=O)c3cccc(-c4ccccc4)c3Cl)nc2)C1", "pIC50": "< 6.00"}
{"Molecular string": "CC(=O)NCCNCc1ccc(NC(=O)c2cccc(-c3ccc(F)c(F)c3)c2Cl)nc1", "pIC50": "< 6.00"}
{"Molecular string": "O=C(Nc1ccc(CNCCO)c(F)n1)c1cccc(-c2ccccc2)c1Cl", "pIC50": 6.37}
{"Molecular string": "CC(=O)NCCNCc1ccc(NC(=O)c2cccc(-c3ccccc3)c2C)nc1", "pIC50": "< 6.00"}
{"Molecular string": "CC(=O)NCCNCc1ccc(NC(=O)c2cccc(-c3cccc4c3CC[C@@H]4O)c2Cl)nc1", "pIC50": "< 6.00"}

Item under review: "CC(=O)NCCNCc1ccc(NC(=O)c2cccc(-c3ccccc3)c2Cl)nc1" . Reported pIC50?
6.30

Same for "O=C(Nc1ccc(CN2CCCC[C@H]2C(=O)O)cn1)c1cccc(-c2ccccc2)c1Cl"
< 6.00

Same for "O=C(Nc1ccc(CN2CC[C@H](C(=O)O)C2)cn1)c1cccc(-c2ccc3c(c2)OCCO3)c1"
< 6.00

Same for "O=C(Nc1ccc(CN2CC[C@H](C(=O)O)C2)cn1)c1cccc(-c2ccccc2)c1Cl"
6.76

Same for "COc1ccccc1-c1cccc(C(=O)Nc2ccc(CNCCNC(C)=O)cn2)c1Cl"
< 6.00

====

Biological target: Programmed cell death protein 1/Programmed cell death 1 ligand 1 (Homo sapiens, UniProt Q15116+Q9NZQ7)
Experiment: Inhibition of PD-1/PDL-1 (unknown origin) interaction at 1 uM incubated for 15 mins by TR-FRET assay
Format: protein-complex assay
Outcome measure: inhibition

{"Molecular string": "COCCOc1cccc(-c2cccc(C(=O)Nc3ccc(CNCCNC(C)=O)cn3)c2Cl)c1", "inhibition": "5.29%"}

Item under review: "CC(=O)NCCNCc1ccc(NC(=O)c2cccc(-c3ccccc3)c2Cl)cc1" . Reported inhibition?
9.86%
